Entry source: patent US20040110954A1

The compounds listed here are annotated with their Clint (mL/min/g liver) rat.
Test: Glucuronidation in rat hepatic microsomes with UDPGA
Conditions: Table 1 diphenylureas; rat hepatic microsomes ca. 0.5 mg/mL protein, 0.5 uM compound, UDPGA 4 mM, pH 7.4, 37° C.

Consider the reported Clint (mL/min/g liver) rat for these compounds:
> print(dat)
                            compound.smiles              reading
1  CNS(=O)(=O)c1c(Cl)ccc(NC(=O)Nc2cccc(Cl)c2Cl)c1O  <0.6 mL/min/g liver
2  CS(=O)(=O)c1c(C#N)ccc(NC(=O)Nc2ccccc2Br)c1O  <0.6 mL/min/g liver

query: Recorded Clint (mL/min/g liver) rat of NC(=O)c1c(Cl)ccc(NC(=O)Nc2ccccc2Br)c1O , please.
result: 5.2 mL/min/g liver
